tested on: mouse medulloblastoma allogeneic transplantation model; test: In vivo anti-tumor test, mouse medulloblastoma allogeneic transplantation model; details: 6.25 mg/kg orally twice a day for 2 weeks; nude mouse, subcutaneous medulloblastoma from Patched 1(+/-), p53(-/-) mouse; end of administration
As shown below, each of these compounds has a reported T/C (%) growth rate of the tumor size value.
Observation Type: T/C (%) growth rate of the tumor size

> print(dat)
                               input.smiles                              assay.system                       observation.type  unit.spec  readout.number
1  CCOc1c(C(=O)NC2CCN(C(=O)CO)CC2)n(C)c2cc(CC)n(CC(=O)c3ccccc3)c(=O)c12  mouse medulloblastoma allogeneic transplantation model  T/C (%) growth rate of the tumor size          %             0.4
2  CCc1cc2c(c(OCC(F)(F)F)c(C(=O)NC3CCN(C(=O)CO)CC3)n2C)c(=O)n1CC(=O)c1ccccc1  mouse medulloblastoma allogeneic transplantation model  T/C (%) growth rate of the tumor size          %             0.0
3  COc1c(C(=O)NC2CCN(CCO)CC2)n(C)c2c1c(=O)n(CC(=O)c1ccccc1)c1ccccc21  mouse medulloblastoma allogeneic transplantation model  T/C (%) growth rate of the tumor size          %             0.8
4  COc1c(C(=O)NC2CCN(C(=O)CO)CC2)n(C)c2c1c(=O)n(CC(=O)c1ccccc1)c1ccccc21  mouse medulloblastoma allogeneic transplantation model  T/C (%) growth rate of the tumor size          %             2.0
5  Cc1cc2c(c(OCC(F)(F)F)c(C(=O)NC3CCN(C(=O)CO)CC3)n2C)c(=O)n1CC(=O)c1ccccc1  mouse medulloblastoma allogeneic transplantation model  T/C (%) growth rate of the tumor size          %             5.3
